- Test system: HEK-293T
- experiment-summary: Multiplex assay against HEK293T
- Format: toxicity, cell-based
- assay-conditions: human, 12 h, 10 µM, compound concentration 10 uM, replicate 1
observation-type: Population Mitochondria Different-Phenotype (%)

INSERT INTO measurements (compound, readout_units, recorded_result) VALUES
  ('CC(/C=C1\SC(=S)N(CCCC(=O)Nc2ccc(C(=O)O)c(O)c2)C1=O)=C\c1ccccc1', '%', 65),
  ('N#CCNC(=O)c1ccc(-c2ccnc(Nc3ccc(N4CCOCC4)cc3)n2)cc1 [MOMELOTINIB]', '%', 70),
  ('Cl.Cn1c2c(c3ccc(Cl)c(Cl)c31)C(C#N)C1(CCNCC1)NC2=O (stereo not drawn)', '%', 14),
  ('CC(Cc1ccc(O)c(O)c1)C(C)Cc1ccc(O)c(O)c1 (stereo not drawn) [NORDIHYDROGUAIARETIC ACID]', '%', 71),
  ('Cc1ccc(NC(=O)Nc2cc(C(F)(F)F)ccc2F)cc1Nc1ccc2c(c1)NC(=O)/C2=C\c1ccc[nH]1', '%', 3),
  ('CCCCN(CC)c1nc(C)nc2c1c(C)cn2-c1c(C)cc(C)cc1C.Cl', '%', 95),
  ('CC(C)c1cc(Nc2nc(N3CCC[C@H](N)C3)ncc2C(N)=O)cc(C(C)C)n1', '%', 93),
  ('CC(C)C[C@H](NC(=O)[C@H](Cc1ccccc1)NC(=O)CNC(=O)CNC(=O)[C@@H](N)Cc1ccc(O)cc1)C(=O)O [ENKEPHALIN]', '%', 84),
  ('Cc1c(Nc2ccc(S(=O)(=O)N3CCN(C)CC3)cc2F)nc2ccc(Nc3cnn(C4CC4)c3)cn2c1=O', '%', 4),
  ('CCOc1ccn(-c2ccc(F)cc2)c(=O)c1C(=O)Nc1ccc(Oc2ccnc(N)c2Cl)c(F)c1 [BMS-777607]', '%', 3),
  ('CN(c1cc(C(F)(F)F)nc(OCCC(=O)O)n1)c1cccc2c1CCC2', '%', 69),
  ('CCOC(=O)CCNc1cc(N2CCc3ccccc3CC2)nc(-c2ccccn2)n1', '%', 27),
  ('CCCc1cc(C)[nH]c(=O)c1CNC(=O)c1cc(-c2ccc(N3CCN(C(C)C)CC3)nc2)cc2c1cnn2C(C)C', '%', 97),
  ('CC[C@H](Nc1ncnc2[nH]cnc12)c1nc2cccc(F)c2c(=O)n1-c1ccccc1 [IDELALISIB]', '%', 3),
  ('CC[C@@]1(O)C(=O)OCc2c1cc1n(c2=O)Cc2cc3ccccc3nc2-1 [CAMPTOTHECIN]', '%', 2),
  ('CC(C)[C@H](CO)Nc1nc(Nc2cccc(Cl)c2)c2ncn(C(C)C)c2n1 [PURVALANOLA]', '%', 97),
  ('Oc1cccc(-c2nc(N3CCOCC3)c3oc4ncccc4c3n2)c1 [PI-103]', '%', 94),
  ('CN1C(=O)[C@@H](NC(=O)c2cc3ccccc3[nH]2)N=C(c2ccccc2)c2ccccc21 [DEVAZEPIDE]', '%', 88);
